# assayNotes: Test B: Cytotoxicity Assay
# Assay type: cell-based
# conditionDetails: human; uninfected MT-4 cells, same protocol as Test A, 5 days
reportedProperty: log10 CC50 at 5 days (log10 of the value in µM)

compound	log10 CC50 at 5 days
CC(C)(O)C#Cc1ccc(-c2cccc3c(N)n[nH]c23)c([C@H](Cc2cc(F)cc(F)c2)NC(=O)Cn2nc(C(F)(F)F)c3c2C(F)(F)[C@@H]2C[C@H]32)n1 [Compound 29B]	1.18
Cc1ccc(-c2ccc(C#CC(C)(C)O)nc2[C@H](Cc2cc(F)cc(F)c2)NC(=O)Cn2nc(C(F)F)c3c2C(F)(F)[C@@H]2C[C@H]32)c2c1c(NS(N)(=O)=O)nn2C	0.98
COc1cc(-c2ccc(Cl)c3c(NS(C)(=O)=O)nn(C)c23)c([C@H](Cc2cc(F)cc(F)c2)NC(=O)Cn2nc(C(F)(F)F)c3c2C(F)(F)[C@@H]2C[C@H]32)nc1C#CC(C)(C)O [Compound 135B]	1.15
Cn1nc(NS(C)(=O)=O)c2c(Cl)ccc(-c3ccc(-c4ccccn4)nc3[C@H](Cc3cc(F)cc(F)c3)NC(=O)Cn3nc(C(F)(F)F)c4c3C(F)(F)[C@@H]3C[C@H]43)c21	-1.21
CC(C)(C)C#Cc1ccc(-c2cccn3c(NS(C)(=O)=O)nnc23)c([C@H](Cc2cc(F)cc(F)c2)NC(=O)Cn2nc(C(F)F)c3c2C(F)(F)[C@@H]2C[C@H]32)n1	1.45

====

# assayNotes: Test B: Cytotoxicity Assay
# Format: cell-based
# conditionDetails: human; uninfected MT-4 cells, same protocol as Test A, 5 days
reportedProperty: CC50 at 5 days (µM)

compound	reportedProperty	resultUnit	readoutRelation	reportedMeasurement
CCC(O)C#Cc1ccc(-c2ccc(Cl)c3c(NS(C)(=O)=O)nn(C)c23)c([C@H](Cc2cc(F)cc(F)c2)NC(=O)Cn2nc(C(F)(F)F)c3c2C(F)(F)[C@@H]2C[C@H]32)n1 (stereo partly drawn) [Compound 145]	CC50 at 5 days	µM	=	8.69
Cn1nc(NS(C)(=O)=O)c2cccc(-c3ccc(C#C[C@@H](N)CO)nc3[C@H](Cc3cc(F)cc(F)c3)NC(=O)Cn3nc(C(F)(F)F)c4c3C(F)(F)[C@@H]3C[C@H]43)c21 [Compound 59B]	CC50 at 5 days	µM	=	22.4
Cn1cc(-c2ccc(-c3ccc(Cl)c4c(NS(C)(=O)=O)nn(C)c34)c([C@H](Cc3cc(F)cc(F)c3)NC(=O)Cn3nc(C(F)(F)F)c4c3C(F)(F)[C@@H]3C[C@H]43)n2)cn1 [Compound 173]	CC50 at 5 days	µM	>	43.7

The reported measurements were obtained from patent US9951043B2.
